Organism: Mus musculus
measurement protocol: Inhibition of electrically evoked mouse vas deferens contraction
Format: functional
Where a SMILES comes first, the peptide text is derived from it. [ ]: non-standard residue; d: D form. Aic = NC1(C(=O)O)Cc2ccccc2C1
measurement name: IC50 (nM)

{"compound": "CC(C)[C@H](NC(=O)[C@H](CC(=O)O)NC(=O)C1(NC(=O)[C@@H](C)NC(=O)[C@@H](N)Cc2ccc(O)cc2)Cc2ccccc2C1)C(=O)N[C@H](C(=O)NCC(N)=O)C(C)C (H-Y[dA][Aic]DVVG-NH2)", "measurement name": "IC50", "reported": 0.08}

====

subject of test: Somatostatin receptor type 4 (Homo sapiens, UniProt P31391)
Sequence (P31391 whole entry): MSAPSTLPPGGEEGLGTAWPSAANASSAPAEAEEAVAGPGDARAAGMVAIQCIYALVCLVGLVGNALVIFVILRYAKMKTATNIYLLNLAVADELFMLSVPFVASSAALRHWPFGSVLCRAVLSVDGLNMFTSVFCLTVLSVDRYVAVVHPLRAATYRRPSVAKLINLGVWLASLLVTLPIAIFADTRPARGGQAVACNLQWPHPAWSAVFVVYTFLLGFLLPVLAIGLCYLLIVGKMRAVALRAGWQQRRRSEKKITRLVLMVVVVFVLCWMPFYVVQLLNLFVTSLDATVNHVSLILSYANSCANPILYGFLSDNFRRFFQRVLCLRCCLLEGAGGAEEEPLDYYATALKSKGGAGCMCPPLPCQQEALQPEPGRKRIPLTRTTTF
Where a SMILES comes first, the peptide text is derived from it.
measurement name: IC50

{"molecule": "CC(=O)N[C@@H](Cc1ccccc1)C(=O)N[C@@H](Cc1c[nH]c2ccccc12)C(=O)N[C@@H](CCCCN)C(=O)N[C@H](C(N)=O)[C@@H](C)O (Ac-FWKT-NH2)", "reported": "> 1000 nM"}

====

subject of test: Neprilysin (Homo sapiens, UniProt P08473)
Sequence (P08473 whole entry): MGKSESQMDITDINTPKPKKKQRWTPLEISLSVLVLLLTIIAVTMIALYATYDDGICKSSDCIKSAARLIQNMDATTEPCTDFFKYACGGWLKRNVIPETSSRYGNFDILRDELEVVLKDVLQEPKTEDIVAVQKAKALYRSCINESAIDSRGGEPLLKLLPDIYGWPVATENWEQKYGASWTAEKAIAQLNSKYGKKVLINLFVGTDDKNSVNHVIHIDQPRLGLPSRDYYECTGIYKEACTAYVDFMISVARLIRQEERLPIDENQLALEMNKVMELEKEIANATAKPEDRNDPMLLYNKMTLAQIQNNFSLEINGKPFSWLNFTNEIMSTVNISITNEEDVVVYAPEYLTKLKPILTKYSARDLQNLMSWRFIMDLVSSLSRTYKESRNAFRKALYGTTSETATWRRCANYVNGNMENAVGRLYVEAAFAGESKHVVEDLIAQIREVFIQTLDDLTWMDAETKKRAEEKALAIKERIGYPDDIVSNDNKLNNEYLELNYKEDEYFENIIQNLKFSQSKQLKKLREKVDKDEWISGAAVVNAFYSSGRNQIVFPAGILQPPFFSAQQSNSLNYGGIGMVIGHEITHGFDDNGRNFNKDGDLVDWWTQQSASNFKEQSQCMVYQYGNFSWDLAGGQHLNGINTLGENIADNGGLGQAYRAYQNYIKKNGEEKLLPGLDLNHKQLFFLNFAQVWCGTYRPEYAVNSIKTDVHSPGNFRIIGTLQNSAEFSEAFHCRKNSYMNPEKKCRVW
pIC50: −log10 of the molar value.
measurement name: pIC50

{"query smiles": "C[C@H](NC(=O)[C@@H](CS)Cc1ccccc1)C(=O)N1Cc2ccccc2C[C@H]1C(=O)O", "measurement name": "pIC50", "reported": 8.41}

====

IC50 by entry:
measurement protocol: Inhibition of angiotensin-converting enzyme (unknown origin)

{"molecule": "CC(CS)C(=O)N1CCc2ccccc2C1C(=O)O (configuration not stated)", "IC50": "58 µM"}
{"molecule": "CC(CS)C(=O)N1Cc2ccccc2C1C(=O)O (configuration not stated)", "IC50": "14 µM"}

====

subject of test: B2 bradykinin receptor (Homo sapiens, UniProt P30411)
Sequence (P30411 whole entry): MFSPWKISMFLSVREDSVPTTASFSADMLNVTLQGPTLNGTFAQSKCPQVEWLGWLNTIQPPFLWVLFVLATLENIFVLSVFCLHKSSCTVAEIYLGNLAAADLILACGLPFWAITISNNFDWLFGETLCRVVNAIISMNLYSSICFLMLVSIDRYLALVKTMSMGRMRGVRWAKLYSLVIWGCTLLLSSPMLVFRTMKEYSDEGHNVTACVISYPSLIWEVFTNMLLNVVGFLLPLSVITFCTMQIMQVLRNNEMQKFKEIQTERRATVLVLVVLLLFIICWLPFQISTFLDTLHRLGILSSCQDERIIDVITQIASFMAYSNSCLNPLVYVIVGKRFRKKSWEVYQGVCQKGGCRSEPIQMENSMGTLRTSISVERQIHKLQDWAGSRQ
measurement protocol: Binding affinity to B2 bradykinin receptor (unknown origin)
particulars: read-out: pKi (converted)

{"compound": "N=C(N)NCCCC(NC(=O)CN1CCCCC2(CCCN2C(=O)[C@H](CO)NC(=O)[C@H](Cc2ccccc2)NC(=O)CNC(=O)[C@@H]2CCCN2C(=O)[C@@H]2CCCN2C(=O)[C@@H](N)CCCNC(=N)N)C1=O)C(=O)O (mixture of isomers; 67)", "subject of test": "B2 bradykinin receptor (Homo sapiens, UniProt P30411)", "Ki": "1260 nM"}
{"compound": "N=C(N)NCCC[C@H](NC(=O)CN1Cc2ccccc2CC(NC(=O)[C@H](CO)NC(=O)[C@H](Cc2ccccc2)NC(=O)CNC(=O)[C@@H]2CCCN2C(=O)[C@@H]2CCCN2C(=O)[C@@H](N)CCCNC(=N)N)C1=O)C(=O)O (mixture of isomers)", "subject of test": "B2 bradykinin receptor (Homo sapiens, UniProt P30411)", "Ki": "794 nM"}
{"compound": "N=C(N)NCCC[C@@H](N)C(=O)N[C@@H](CCCNC(=N)N)C(=O)N1CCC[C@H]1C(=O)N1C[C@H](O)C[C@H]1C(=O)NCC(=O)N[C@@H](Cc1cccs1)C(=O)N[C@@H](CO)C(=O)N[C@@H]1Cc2ccccc2CN(CC(=O)N[C@@H](CCCNC(=N)N)C(=O)O)C1=O", "subject of test": "B2 bradykinin receptor (Homo sapiens, UniProt P30411)", "Ki": "316 nM"}
{"compound": "N=C(N)NCCC[C@@H](N)C(=O)N[C@@H](CCCNC(=N)N)C(=O)N1CCC[C@H]1C(=O)N1C[C@H](O)C[C@H]1C(=O)NCC(=O)N[C@@H](Cc1cccs1)C(=O)N[C@@H](CO)C(=O)N[C@H]1Cc2ccccc2CN(CC(=O)N[C@@H](CCCNC(=N)N)C(=O)O)C1=O", "subject of test": "B2 bradykinin receptor (Homo sapiens, UniProt P30411)", "Ki": "200 nM"}
{"compound": "C[C@H](C(=O)N[C@@H](CCCNC(=N)N)C(=O)O)N1Cc2ccccc2C[C@@H](NC(=O)[C@H](CO)NC(=O)[C@H](Cc2ccccc2)NC(=O)CNC(=O)[C@@H]2CCCN2C(=O)[C@@H]2CCCN2C(=O)[C@@H](N)CCCNC(=N)N)C1=O", "subject of test": "B2 bradykinin receptor (Homo sapiens, UniProt P30411)", "Ki": "501 nM"}
